Hey, just so you know, these numbers are from the CheMixHub drug solubility set.

Some compounds, each annotated with its measured solubility (g/100 g solution).
test summary: xn = mol fraction of the nth substance listed, in the solute-free solvent
experimental conditions: 293.15 K; x2 = 0.2
Quick one: just the number, no unit, thanks!

QUERY: Let me know recorded solubility (g/100 g solution) for O=C(CC(=O)c1ccccc1)c1ccccc1 + CCO + O , thanks.
RESULT: 0.069

QUERY: // fetch solubility (g/100 g solution) given entry CCOC(=O)C1=CC2(CC)CCCN3CCc4c(n1c1ccccc41)C32 (stereo not given) + CCO + O
RESULT: 0.0113

QUERY: Quote solubility (g/100 g solution) reported for O=C(CC(=O)c1ccccc1)c1ccccc1 + CO + O please.
RESULT: 0.0358

QUERY: Hello, please tell me recorded solubility (g/100 g solution) for this one: CC1(C)SC2C(NC(=O)C(NC(=O)N3CCNC3=O)c3ccccc3)C(=O)N2C1C(=O)O (stereo not given) + CCO + CC(C)O
RESULT: 0.153

***
QUERY: // Input: O=c1ccc2ccccc2o1 + CO + O . Output its solubility (g/100 g solution) only.
RESULT: 0.598

###

test summary: xn = mol fraction of the nth substance listed, in the solute-free solvent
experimental conditions: 283.15 K; x2 = 0.06974
Would you mind labelling by solubility (g/100 g solution)? At or over 0.3 is fulfilled, under is not fulfilled.

QUERY: Has CS(=O)(=O)c1ccc(C(O)C(CF)NC(=O)C(Cl)Cl)cc1 (stereo not given) + CC(C)O + O a recorded solubility (g/100 g solution) greater than or equal to 0.3?
RESULT: not fulfilled

QUERY: // inclusive: solubility (g/100 g solution) at least 0.3? input: COC(=O)C1=C(C)NC(C)=C(C(=O)OCC(C)C)C1c1ccccc1[N+](=O)[O-] (stereo not given) + CC(C)O + O
RESULT: fulfilled

***
QUERY: Identify whether the reported solubility (g/100 g solution) of the following compound is 0.3 or greater: CC(=O)Nc1ccc(OC(=O)c2ccccc2OC(C)=O)cc1 + CC(C)O + O
RESULT: not fulfilled

QUERY: Kindly determine if solubility (g/100 g solution) recorded for COC(=O)C1=C(C)NC(C)=C(C(=O)OCC(C)C)C1c1ccccc1[N+](=O)[O-] (stereo not given) + CCCO + O is above or exactly 0.3.
RESULT: fulfilled

###

Below, each of the compounds is paired with its reported solubility (g/100 g solution) value.
test summary: xn = mol fraction of the nth substance listed, in the solute-free solvent
experimental conditions: 318.15 K; x2 = 0.4117
Keep it simple and answer with nothing but the number.

Use the examples below as a reference point.
QUERY: Provide only the value of recorded solubility (g/100 g solution) for COC(=O)C1=C(C)NC(C)=C(C(=O)OCC(C)C)C1c1ccccc1[N+](=O)[O-] (centres undefined) + CCCO + O
RESULT: 9.08

QUERY: Let me know recorded solubility (g/100 g solution) for CC(=O)Nc1ccc(OC(=O)c2ccccc2OC(C)=O)cc1 + CC(C)O + O , thanks.
RESULT: 0.574

QUERY: Give the reported value of solubility (g/100 g solution) for this record: O=[N+]([O-])c1cc[nH]n1 + CCCO + O
RESULT: 6.61

Here's the next entry for you.
QUERY: Entry CS(=O)(=O)c1ccc(C(O)C(CF)NC(=O)C(Cl)Cl)cc1 (centres undefined) + CC(C)O + O needs its solubility (g/100 g solution) filled in; supply it.
RESULT: 2.24

###

test summary: xn = mol fraction of the nth substance listed, in the solute-free solvent
experimental conditions: 288.15 K; x2 = 0.3
Everything with solubility (g/100 g solution) lower than 0.6 is rule not met; everything else, including exactly 0.6, is rule met.

QUERY: Answer whether solubility (g/100 g solution) of O=c1ccc2ccccc2o1 + CC(C)=O + O is greater than or equal to 0.6.
RESULT: rule met

Continuing:
QUERY: Is the recorded value of solubility (g/100 g solution) equal to or greater than 0.6 for this compound? O=c1ccc2ccccc2o1 + CO + O
RESULT: rule met

QUERY: Kindly determine if solubility (g/100 g solution) recorded for CC1(C)SC2C(NC(=O)C(NC(=O)N3CCNC3=O)c3ccccc3)C(=O)N2C1C(=O)O (stereo not given) + CO + CC(C)O is above or exactly 0.6.
RESULT: rule not met

QUERY: Reported solubility (g/100 g solution) at or above 0.6? CCOC(=O)C1=CC2(CC)CCCN3CCc4c(n1c1ccccc41)C32 (stereo not given) + CCO + O
RESULT: rule not met

###

Reported solubility (g/100 g solution) values for the following molecules.
test summary: xn = mol fraction of the nth substance listed, in the solute-free solvent
experimental conditions: 313.15 K; x2 = 0.4
When you answer, write just the number.

Known results for molecules:
QUERY: Give the reported solubility (g/100 g solution) for this molecule. O=C(CC(=O)c1ccccc1)c1ccccc1 + CC(C)O + O
RESULT: 1.73

QUERY: Read the entry O=C(CC(=O)c1ccccc1)c1ccccc1 + CCO + O and write its reported solubility (g/100 g solution).
RESULT: 2.5

QUERY: Output measured solubility (g/100 g solution) for this item: CCCCN1CCCCC1C(=O)Nc1c(C)cccc1C.Cl.O (stereo not drawn) + CO + O
RESULT: 11.9

QUERY: Identify measured solubility (g/100 g solution) corresponding to CC1(C)SC2C(NC(=O)C(NC(=O)N3CCNC3=O)c3ccccc3)C(=O)N2C1C(=O)O (stereo not drawn) + CO + CC(C)O
RESULT: 0.551

QUERY: Return value of solubility (g/100 g solution) for input O=C(CC(=O)c1ccccc1)c1ccccc1 + CO + O , no commentary.
RESULT: 0.236

QUERY: In one line, give reported solubility (g/100 g solution) of the entry CCCCN1CCCCC1C(=O)Nc1c(C)cccc1C.Cl.O (stereo not drawn) + CCO + O .
RESULT: 7.83

Next:
QUERY: Identify measured solubility (g/100 g solution) corresponding to CCOC(=O)C1=CC2(CC)CCCN3CCc4c(n1c1ccccc41)C32 (stereo not drawn) + CCO + O
RESULT: 0.421

QUERY: Please report the measured solubility (g/100 g solution) for O=c1ccc2ccccc2o1 + CO + O
RESULT: 28.7

###

test summary: xn = mol fraction of the nth substance listed, in the solute-free solvent
experimental conditions: 303.15 K; x2 = 0.6
Recorded measurements of solubility (g/100 g solution), one per entry
Answer with a number only.

Please review the following examples before continuing.
QUERY: Let me know recorded solubility (g/100 g solution) for O=C(CC(=O)c1ccccc1)c1ccccc1 + CC(C)O + O , thanks.
RESULT: 1.91

QUERY: Answer with reported solubility (g/100 g solution) of CCCCN1CCCCC1C(=O)Nc1c(C)cccc1C.Cl.O (stereo not given) + CO + O
RESULT: 8.26

QUERY: Consider the compound O=c1ccc2ccccc2o1 + CC(C)=O + O and give its recorded solubility (g/100 g solution).
RESULT: 57.2

Next:
QUERY: Kindly indicate its recorded solubility (g/100 g solution). Item: CCCCN1CCCCC1C(=O)Nc1c(C)cccc1C.Cl.O (stereo not given) + CCO + O
RESULT: 4.62

QUERY: Note solubility (g/100 g solution) for the compound shown: O=C(CC(=O)c1ccccc1)c1ccccc1 + CO + O
RESULT: 0.822

QUERY: Find the measured solubility (g/100 g solution) of O=c1[nH]cc(F)c(=O)[nH]1 + CO + C1CCOC1 and report it.
RESULT: 0.472

QUERY: In one line, give reported solubility (g/100 g solution) of the entry O=c1ccc2ccccc2o1 + CO + O .
RESULT: 24.8

QUERY: // Input: CCOC(=O)C1=CC2(CC)CCCN3CCc4c(n1c1ccccc41)C32 (stereo not given) + CCO + O . Output its solubility (g/100 g solution) only.
RESULT: 0.639

QUERY: Assign solubility (g/100 g solution) to the following record: O=C(CC(=O)c1ccccc1)c1ccccc1 + CCO + O
RESULT: 2

QUERY: Specify solubility (g/100 g solution) for CC1(C)SC2C(NC(=O)C(NC(=O)N3CCNC3=O)c3ccccc3)C(=O)N2C1C(=O)O (stereo not given) + CO + CC(C)O and stop.
RESULT: 0.448

###

Overview of recorded solubility (g/100 g solution) for various compounds
test summary: xn = mol fraction of the nth substance listed, in the solute-free solvent
experimental conditions: 278.15 K; x2 = 0.06974

As a guide, the following entries are already answered.
QUERY: Specify solubility (g/100 g solution) for CC(=O)Nc1ccc(OC(=O)c2ccccc2OC(C)=O)cc1 + CC(C)O + O and stop.
RESULT: 0.0072

QUERY: Supply reported solubility (g/100 g solution) belonging to this compound: COC(=O)C1=C(C)NC(C)=C(C(=O)OCC(C)C)C1c1ccccc1[N+](=O)[O-] (centres undefined) + CCCO + O
RESULT: 0.532

QUERY: State, in one line, measured solubility (g/100 g solution) of CS(=O)(=O)c1ccc(C(O)C(CF)NC(=O)C(Cl)Cl)cc1 (centres undefined) + CC(C)O + O
RESULT: 0.117

Next item in the queue.
QUERY: Please indicate solubility (g/100 g solution) recorded for COC(=O)C1=C(C)NC(C)=C(C(=O)OCC(C)C)C1c1ccccc1[N+](=O)[O-] (centres undefined) + CC(C)O + O
RESULT: 0.651
